method-notes: chemical genetic growth profiling, strain panel (AID 1159580);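 also: tested at 20 µM; growth read once vehicle control cultures reached saturation at 30 °C; 1 = growth at the plate median or of vehicle wells; lower values mean less growth of the strain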
condition-summary: S. cerevisiae deletion strains, growth OD, locus YKL160W, strain elf1, active compounds read low
Hit rate of the full screen: of about 5,500 compounds, about 2,000 (36%) were called active. Not shown: some 18% with an inconclusive outcome. This is one part of the list.
Hi there, I'd appreciate the recorded normalized growth for every entry that follows.
One number for each entry.

molecule	normalized growth
CC(=O)N[C@@H](CC(=O)O)C(=O)O	0.998
COc1cc(O)c(C)c(O)c1	1.01
COc1cc2ccc(=O)oc2c2ccoc12	0.894
COc1ccc2[nH]cc(CCNC(C)=O)c2c1	0.979
Nc1ncnc2c1ncn2[C@@H]1O[C@H](CO)[C@@H](O)[C@@H]1O	1

Please give normalized growth, item by item, for the list that follows.
1. CCCCCN=C(N)N/N=C\c1c[nH]c2ccc(OC)cc12
2. COc1ccc2c(=O)c(-c3cc4c(cc3OC)OCO4)coc2c1
3. COC(=O)C1=CO[C@@H](O[C@@H]2O[C@H](CO)[C@@H](O)[C@H](O)[C@H]2O)[C@@H]2[C@@H](C)[C@@H](O)C[C@H]12

1: 1.01; 2: 1.01; 3: 0.961

Please give normalized growth, item by item, for the list that follows.
1. CN1CCN(CCCN2c3ccccc3Sc3ccc(Cl)cc32)CC1
2. CCOc1nc2cccc(C(=O)OC(C)OC(=O)OC3CCCCC3)c2n1Cc1ccc(-c2ccccc2-c2nn[nH]n2)cc1 (stereo unspecified)
3. COc1cc2c(cc1-c1coc3c4c(c(OC)cc3c1=O)OC(C)(C)C=C4)OCO2
4. OC[C@@H](O)C(O[C@@H]1O[C@H](CO)[C@H](O)[C@H](O)[C@H]1O)[C@H](O)[C@@H](O)CO (stereo partly specified)
5. COc1cc(OC)c2c(=O)c(-c3ccc4c(c3)OCO4)coc2c1

[0.974, 1.02, 0.927, 0.991, 0.991]

Please give normalized growth, item by item, for the list that follows.
1. COc1c2occc2cc2ccc(=O)oc12
2. COc1cc(O)c(C(C)=O)c(OC)c1
3. Cc1cccc(N(C)C(=S)Oc2ccc3ccccc3c2)c1
4. CSCCC(NC=O)C(=O)NC(CC(C)C)C(=O)NC(Cc1ccccc1)C(=O)O (stereo unspecified)

0.948
0.986
0.947
1.01

Please give normalized growth, item by item, for the list that follows.
1. O=c1n(CCCN2CCN(c3cccc(Cl)c3)CC2)nc2ccccn12
2. COc1cc2ccc(=O)oc2c(OC)c1OC
3. CC(C)=CCC1=C(O)c2ccccc2C(=O)C1=O
4. c1coc(CNc2ncnc3nc[nH]c23)c1
5. CC(C)CCCC(C)[C@H]1CCC2C3CC[C@H]4CC(=O)CC[C@]4(C)C3CC[C@@]21C (stereo partly specified)
6. COc1cc(OC)c(C(C)=O)c(O)c1C
7. CCCc1nc(C(C)(C)O)c(C(=O)OCc2oc(=O)oc2C)n1Cc1ccc(-c2ccccc2-c2nn[nH]n2)cc1
8. Nc1ncnc2nc[nH]c12

1: 0.986; 2: 0.965; 3: 0.741; 4: 1.02; 5: 0.963; 6: 0.956; 7: 0.994; 8: 0.995

----------
method-notes: chemical genetic growth profiling, strain panel (AID 1159580)
condition-summary: S. cerevisiae deletion strains, growth OD, locus YGL240W, strain doc1, active compounds read low
About 2,000 (36%) of roughly 5,500 compounds were called active. Roughly 18% stayed inconclusive and do not appear here. Some of the results follow.
Hi there, I'd appreciate the recorded normalized growth for every entry that follows.
One number for each entry.

CCCCC(=O)N(Cc1ccc(-c2ccccc2-c2nn[nH]n2)cc1)[C@H](C(=O)O)C(C)C 1.01
c1ccc2c(c1)[nH]c1cnccc12 0.991

Could you now consider this next molecule?
// query normalized growth value for entry O=C(O)c1cc2cc(Cl)ccc2[nH]1 0.984

----------
method-notes: chemical genetic growth profiling, strain panel (AID 1159580)
condition-summary: S. cerevisiae deletion strains, growth OD, locus YPL256C, strain CLN2
Screen size: about 5,500 compounds; about 2,000 (36%) were called active. Another 18% or so got no clear call; they are omitted. Cut-off read from the data, not from the text of the source: active = normalized growth mostly below about 0.91 (no sharp cut-off); inconclusive = no clear call, values can overlap the other calls; inactive = mostly above about 0.92. The list shows a part of the results.
Entry note: the call must match one of 1 (yes) for active, 0 (no) for inactive

Please share the test call associated with CC(C)=CCC/C(C)=C/COc1ccc2ccc(=O)oc2c1 . 0 (no)

Same question, N#CC(C#N)=NNc1ccc(-n2ccc(C(F)(F)F)n2)cc1 this time 1 (yes)

Same question, O=C(Nc1ccc(Cl)cc1)c1csc([N+](=O)[O-])c1 this time 1 (yes)

Same question, COc1cc2ccc(=O)oc2cc1O this time 0 (no)

Same question, CC(C)=CCOc1cc2oc(=O)ccc2cc1O this time 0 (no)

Same question, N#Cc1c(N)sc2c1CCc1ccccc1-2 this time 0 (no)

Same question, O=C(O)c1cccc2cccc(C(=O)O)c12 this time 1 (yes)

----------
method-notes: chemical genetic growth profiling, strain panel (AID 1159580);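 also: tested at 20 µM; growth read once vehicle control cultures reached saturation at 30 °C; 1 = growth at the plate median or of vehicle wells; lower values mean less growth of the strain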
condition-summary: S. cerevisiae deletion strains, growth OD, locus YGL173C, strain kem1, active compounds read low
Screen size: about 5,500 compounds; about 2,000 (36%) were called active. Not shown: some 18% with an inconclusive outcome. This is one part of the list.
endpoint: normalized growth
Answers are plain numbers.

Below are worked cases with known answers.
molecule	normalized growth
COc1cc(OC)c(C(C)=O)c(O)c1C	0.921
C[C@H]1C(=O)O[C@@H]2CCN3CC=C(COC(=O)[C@](C)(O)[C@]1(C)O)[C@H]23	0.994
Cc1ncc([N+](=O)[O-])n1CCO	0.981
CN(C)c1nc(N(C)C)nc(N(C)C)n1	0.959
COc1cc(O)c(C)c(O)c1	1.02
COc1cc2ccc(=O)oc2c(OC)c1OC	0.956

Please give normalized growth, item by item, for the list that follows.
1. CC(=O)OC1CCC23C(=O)OC45CCC(C6=CC(=O)OC6)C4(C)CCC2C5CCC3(O)C1 (stereo not drawn)
2. COc1cc2ccc(=O)oc2c2ccoc12
3. CCCCCN=C(N)N/N=C\c1c[nH]c2ccc(OC)cc12
4. CC(C)=CCC/C(C)=C/COc1ccc2ccc(=O)oc2c1
5. O=c1cc(-c2ccc(O)cc2)oc2cc(O[C@@H]3O[C@H](CO)[C@@H](O)[C@H](O)[C@H]3O[C@@H]3OC[C@](O)(CO)[C@H]3O)cc(O)c12
6. O=C(/C=C/C(=O)Oc1ccccc1C(=O)O)Oc1ccccc1C(=O)O
7. CC(C)=CCOc1c2occc2cc2ccc(=O)oc12

1. 0.972
2. 0.862
3. 1.01
4. 0.99
5. 1.02
6. 1
7. 0.885

----------
Hi there, I'd appreciate the recorded normalized growth for every entry that follows.
method-notes: chemical genetic growth profiling, strain panel (AID 1159580);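 also: tested at 20 µM; growth read once vehicle control cultures reached saturation at 30 °C; 1 = growth at the plate median or of vehicle wells; lower values mean less growth of the strain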
condition-summary: S. cerevisiae deletion strains, growth OD, locus YEL061C, strain CIN8 (second series), active compounds read low
The whole screen tested about 5,500 compounds, of which about 2,000 (36%) were called active. Inconclusive results (about 18%) are left out. The list shows a part of the results.
Give bare numbers.

Below are worked cases with known answers.
molecule	value-measured
N#C/C(=C\c1ccc(O)cc1)C(=O)O	0.984
COP(=S)(OC)SCn1nnc2ccccc2c1=O	1.01
COc1cc(O)c(C)c(O)c1	1.02

Please give normalized growth, item by item, for the list that follows.
1. CNC(=O)CSP(=S)(OC)OC
2. COc1ccc2c(=O)c(CC(=O)O)coc2c1
3. COc1cc(O)c(C(C)=O)c(OC)c1
4. O=c1[nH]c2ccccc2n1C1CCN(CCCC(c2ccc(F)cc2)c2ccc(F)cc2)CC1
5. O=c1[nH]c2ccccc2n1CCCN1CCC(n2c(=O)[nH]c3cc(Cl)ccc32)CC1
6. O=c1ccc2cc(O[C@@H]3O[C@H](CO)[C@@H](O)[C@H](O)[C@H]3O)c(O)cc2o1

1: 1.01; 2: 0.973; 3: 1; 4: 1.01; 5: 0.98; 6: 0.974

Please give normalized growth, item by item, for the list that follows.
1. COc1cc2ccc(=O)oc2cc1O
2. Cc1cccc(N(C)C(=S)Oc2ccc3ccccc3c2)c1

1. 0.977
2. 0.989

----------
method-notes: chemical genetic growth profiling, strain panel (AID 1159580);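 also: tested at 20 µM; growth read once vehicle control cultures reached saturation at 30 °C; 1 = growth at the plate median or of vehicle wells; lower values mean less growth of the strain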
condition-summary: S. cerevisiae deletion strains, growth OD, locus YKL160W, strain elf1, active compounds read low
The whole screen tested about 5,500 compounds, of which about 2,000 (36%) were called active. About 18% were inconclusive and are not listed. This is one part of the list.
Hi there, I'd appreciate the recorded normalized growth for every entry that follows.
One number for each entry.

Below are worked cases with known answers.
molecule	normalized growth
Cn1c([N+](=O)[O-])cnc1COC(N)=O	1.02
CC(=O)O[C@H]1CC2CCC3C(CC[C@@]4(C)C3C[C@H]([N+]3(C)CCCCC3)[C@@H]4OC(C)=O)[C@@]2(C)C[C@@H]1[N+]1(C)CCCCC1 (stereo not given in full)	1.02
CCCC(=O)Nc1ncnc2c1ncn2C1O[C@@H]2COP(=O)(O)O[C@H]2[C@H]1OC(=O)CCC (stereo not given in full)	0.999
O=C1c2ccccc2C(=O)c2c(O)c(O)cc(O)c21	0.507

// query normalized growth value for entry CCCCC/C=C\C/C=C\C/C=C\C/C=C\CCCC(=O)O 0.98

meta.source: PubChem BioAssay AID1159580
